assay: Solubility of compound of formula II in cyclodextrin aqueous solutions (Test Example 7); format: physicochemical; details: α-cyclodextrin aqueous solution, 25 °C, aqueous with cosolvent or surfactant or cyclodextrin, thermodynamic from solid, α-cyclodextrin 10% by mass in water, 25° C., 24 hours; read-out: Solubility of compound of formula II

structure.notation: O=C(O)CSCCCC[C@@H]1[C@@H](C#C[C@@H](O)C2CCCCC2)[C@H](O)C[C@H]1Cl
units.label: µg/mL
solubility at 24 h: 1220

* * *

assay: Solubility of compound of formula II in cyclodextrin aqueous solutions (Test Example 7); type: physicochemical; conditions: γ-cyclodextrin aqueous solution, 25 °C, aqueous with cosolvent or surfactant or cyclodextrin, thermodynamic from solid, γ-cyclodextrin 0.1% by mass in water, 25° C.; * completely dissolved, actual solubility assumed much higher; read-out: Solubility of compound of formula II
reported.property: solubility at 24 h

structure.notation: O=C(O)CSCCCC[C@@H]1[C@@H](C#C[C@@H](O)C2CCCCC2)[C@H](O)C[C@H]1Cl
observed.measurement: > 50 µg/mL

* * *

assay: Solubility of compound of formula II in cyclodextrin aqueous solutions (Test Example 7); assay type: physicochemical; conditions: γ-cyclodextrin aqueous solution, 25 °C, aqueous with cosolvent or surfactant or cyclodextrin, thermodynamic from solid, γ-cyclodextrin 1% by mass in water, 25° C., 24 hours; read-out: Solubility of compound of formula II

structure.notation: O=C(O)CSCCCC[C@@H]1[C@@H](C#C[C@@H](O)C2CCCCC2)[C@H](O)C[C@H]1Cl
solubility at 24 h (µg/mL): 170

* * *

assay: Solubility of compound of formula II in cyclodextrin aqueous solutions (Test Example 7); assay type: physicochemical; conditions: α-cyclodextrin aqueous solution, 25 °C, aqueous with cosolvent or surfactant or cyclodextrin, thermodynamic from solid, α-cyclodextrin 2% by mass in water, 25° C., 24 hours; read-out: Solubility of compound of formula II

structure.notation: O=C(O)CSCCCC[C@@H]1[C@@H](C#C[C@@H](O)C2CCCCC2)[C@H](O)C[C@H]1Cl
solubility at 24 h (µg/mL): 170

* * *

test: Solubility of compound of formula II in cyclodextrin aqueous solutions (Test Example 7); assay type: physicochemical; settings: α-cyclodextrin aqueous solution, 25 °C, aqueous with cosolvent or surfactant or cyclodextrin, thermodynamic from solid, α-cyclodextrin 12% by mass in aqueous solution, 25° C. (FIG. 1); read-out: Solubility of the compound of formula II

compound: O=C(O)CSCCCC[C@@H]1[C@@H](C#C[C@@H](O)C2CCCCC2)[C@H](O)C[C@H]1Cl [compound of formula II]
units.label: µg/mL
solubility at 24 h: 1520

* * *

experiment: Solubility of compound of formula II in cyclodextrin aqueous solutions (Test Example 7); format: physicochemical; conditions: α-cyclodextrin aqueous solution, 25 °C, aqueous with cosolvent or surfactant or cyclodextrin, thermodynamic from solid, α-cyclodextrin 5% by mass in water, 25° C., 24 hours; read-out: Solubility of compound of formula II

molecule: O=C(O)CSCCCC[C@@H]1[C@@H](C#C[C@@H](O)C2CCCCC2)[C@H](O)C[C@H]1Cl [compound of formula II]
solubility at 24 h: 500 µg/mL

* * *

assay: Solubility of compound of formula II in cyclodextrin aqueous solutions (Test Example 7); type: physicochemical; settings: β-cyclodextrin aqueous solution, 25 °C, aqueous with cosolvent or surfactant or cyclodextrin, thermodynamic from solid, β-cyclodextrin 1% by mass in water, 25° C., 24 hours; read-out: Solubility of compound of formula II

structure.notation: O=C(O)CSCCCC[C@@H]1[C@@H](C#C[C@@H](O)C2CCCCC2)[C@H](O)C[C@H]1Cl
solubility at 24 h: < 100 µg/mL
